molecular target: Sirt6 (Homo sapiens, UniProt Q8N6T7); construct: purchased CycLex CY-1156V2; assay: Measurement of Sirt6 Activity (CycLex Sirt6 Deacetylase Fluorometric Assay Kit); type: biochemical; conditions: compound at 10 μM; fluorescence relative to the group without compound treatment (positive control group)
Sequence (Q8N6T7 whole entry): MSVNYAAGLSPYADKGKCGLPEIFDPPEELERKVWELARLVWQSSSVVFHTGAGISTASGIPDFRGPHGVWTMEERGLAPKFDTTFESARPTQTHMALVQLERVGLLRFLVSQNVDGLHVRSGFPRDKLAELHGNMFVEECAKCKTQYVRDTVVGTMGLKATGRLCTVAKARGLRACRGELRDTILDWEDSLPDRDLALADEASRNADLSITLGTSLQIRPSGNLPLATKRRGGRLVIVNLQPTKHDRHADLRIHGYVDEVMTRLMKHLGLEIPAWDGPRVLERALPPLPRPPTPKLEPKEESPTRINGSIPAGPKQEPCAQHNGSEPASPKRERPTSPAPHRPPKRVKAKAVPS
The threshold is 200 % activity. Values of Sirt6 Activity (% activity, 10 μM) beneath it are tagged 1 (yes); values meeting or exceeding it are tagged 0 (no).

{"columns": ["compound", "class assignment"],
 "data": [
  ["CCS(=O)(=O)Nc1ccc(-c2nn(-c3ccccc3)c(=O)c3ccccc23)cc1", "1 (yes)"],
  ["CCNS(=O)(=O)c1cccc(-c2nn(-c3c(F)cccc3F)c(=O)c3ccccc23)c1", "0 (no)"],
  ["CCS(=O)(=O)Nc1cccc(-c2cn(-c3ccc(F)cc3)c(=O)c3ccncc23)c1", "1 (yes)"]
]}

Please let me know if `CCN(C)S(=O)(=O)c1cccc(-c2nn(-c3ccc(F)cc3F)c(=O)c3ccccc23)c1` shows Sirt6 Activity (% activity, 10 μM) below 200 % activity. 1 (yes)

# check: Sirt6 Activity (% activity, 10 μM) < 200 % activity for `C/[N+]([O-])=C/c1ccccc1-c1nn(-c2ccc(F)cc2)c(=O)c2ccccc12` 1 (yes)

Could you please tell me whether Sirt6 Activity (% activity, 10 μM) recorded for `CCN(CC)S(=O)(=O)c1cccc(-c2nn(-c3ccc(F)cc3F)c(=O)c3ccccc23)c1` is less than 200 % activity? 1 (yes)

Regarding `CCS(=O)(=O)N[C@@H]1CCCCN(c2nn(-c3ccc(F)cc3F)c(=O)c3ccccc23)C1` , kindly confirm whether its Sirt6 Activity (% activity, 10 μM) is beneath 200 % activity. 0 (no)

Regarding Cl.NC1CCCN(c2nn(-c3ccc(F)cc3)c(=O)c3ccccc23)C1 (stereo not shown) , kindly confirm whether its Sirt6 Activity (% activity, 10 μM) is beneath 200 % activity. 1 (yes)

====

molecular target: Sirt6 (Homo sapiens, UniProt Q8N6T7); construct: purchased CycLex CY-1156V2; assay: Measurement of Sirt6 Activity (CycLex Sirt6 Deacetylase Fluorometric Assay Kit); type: biochemical; details: compound at 10 μM; fluorescence relative to the group without compound treatment (positive control group)
readout type: Sirt6 Activity (% activity, 10 μM)
The reply should consist of the numeric value with the unit placed after it.

Past entries and their recorded results:
{"columns": ["molecule", "target of assay", "test result"],
 "data": [
  ["CCS(=O)(=O)Nc1cccc(-c2nn(-c3cccc(F)c3)c(=O)c3ccccc23)c1", "Sirt6 (Homo sapiens, UniProt Q8N6T7)", "117 % activity"],
  ["CC(C)(C(=O)O)C1CN(c2nn(-c3ccc(F)cc3F)c(=O)c3ccccc23)CCO1 (stereo not shown)", "Sirt6 (Homo sapiens, UniProt Q8N6T7)", "125.50 % activity"],
  ["CNS(=O)(=O)c1cccc(-c2nn(-c3ccccc3F)c(=O)c3ccccc23)c1", "Sirt6 (Homo sapiens, UniProt Q8N6T7)", "259 % activity"]
]}

Entry `CCS(=O)(=O)Nc1cccc(-c2nn(CCc3ccccc3)c(=O)c3ccccc23)c1` needs its Sirt6 Activity (% activity, 10 μM) filled in; supply it. 111 % activity

====

Molecular target: Sirt6 (Homo sapiens)
Construct: purchased CycLex CY-1156V2
Assay: Measurement of Sirt6 Activity (CycLex Sirt6 Deacetylase Fluorometric Assay Kit)
Type: biochemical
Conditions: compound at 10 μM; fluorescence relative to the group without compound treatment (positive control group)
Description: LC-MS (ESI, m/z)=430.1 (M+H^+) Experimental Example 1: Measurement of Sirt6 Activity Compounds having Sirt6 activity were selected using a CycLex Sirt6 Deacetylase Fluorometric Assay Kit (cat. CY-1156V2) manufactured by CycLex. When a fluorescent-attached acetylated lysine substrate is treated with Sirt6 enzyme, Sirt6 deacetylates the acetylated lysine of the substrate and lysylendopeptidase cleaves the C-terminal peptide bond connected to the lysine, by which fluorescence is emitted. […]
Sirt6 Activity (% activity, 10 μM): recorded values
State just the number; it will be interpreted in % activity.

Known results for compounds:
{"columns": ["mol smiles", "Sirt6 Activity (% activity, 10 μM), % activity"],
 "data": [
  ["CN(C)S(=O)(=O)Nc1cccc(-c2nn(-c3ccc(F)cc3)c(=O)c3ccccc23)c1", 189],
  ["O=C(O)Cc1cccc(-c2nn(-c3ccc(F)cc3F)c(=O)c3ccccc23)c1", 149.41]
]}

We now examine a further compound.
Dear colleague, please send me the reported Sirt6 Activity (% activity, 10 μM) for `O=c1c2ccccc2c(-c2cccc(S(=O)(=O)NCCO)c2)nn1-c1ccc(F)cc1F` when you can. 321
